Ki for Alpha-1A adrenergic receptor (Rattus norvegicus) - collated from the literature.
Respond numerically; units are nM and should not be typed.

Answered cases to consult:
{"compound": "O=c1c(CO)coc2cc(OCCCN3CCC(c4noc5cc(F)ccc45)CC3)ccc12", "endpoint.result": 2.4}
{"compound": "COc1cc2[nH]c(=O)n(CCN3C[C@@H]4CCc5c(OC)cccc5[C@@H]4C3)c(=O)c2cc1Cl", "endpoint.result": 1.89}
{"compound": "COc1cccc2c1CC[C@H]1CN(CCn3c(=O)[nH]c4cc(C)c(C)cc4c3=O)C[C@@H]21", "endpoint.result": 1.38}

Task item: Would you please give the reported Ki of `c1ccc2c(C3CCN(CCCCN4CCCCC4)CC3)c[nH]c2c1` with Alpha-1A adrenergic receptor (Rattus norvegicus)?
Reply: 56

Task item: Would you please give the reported Ki of `COc1ccccc1N1CCN(CCn2c(=O)[nH]c3sc(-c4ccccc4)cc3c2=O)CC1` with Alpha-1A adrenergic receptor (Rattus norvegicus)?
Reply: 0.578

Task item: Would you please give the reported Ki of CC(C)C(=O)NC1CCc2cc(CCN3CCN(c4nsc5ccccc45)CC3)ccc21 (stereo not given) with Alpha-1A adrenergic receptor (Rattus norvegicus)?
Reply: 0.49

Task item: Would you please give the reported Ki of COc1ccccc1N1CCN(CCCCN2C(=O)C3CCCCN3C2=O)CC1 (stereo not given) with Alpha-1A adrenergic receptor (Rattus norvegicus)?
Reply: 8.6

Task item: Would you please give the reported Ki of COc1ccc2c(c1NS(C)(=O)=O)CCCC2C1=NCCN1 (stereo not given) with Alpha-1A adrenergic receptor (Rattus norvegicus)?
Reply: 617

Task item: Would you please give the reported Ki of O=C1C2CCCCN2C(=O)N1CCCCN1CCN(c2cccc(C(F)(F)F)c2)CC1 (stereo not given) with Alpha-1A adrenergic receptor (Rattus norvegicus)?
Reply: 72.4

Task item: Would you please give the reported Ki of `COc1cc(N)c(C(=O)NCCN2C[C@@H]3CCc4c(OC)cccc4[C@@H]3C2)cc1OC` with Alpha-1A adrenergic receptor (Rattus norvegicus)?
Reply: 3.75

Task item: Would you please give the reported Ki of `COc1ccccc1N1CCN(CCCCNC(=O)c2cc3ccccc3[nH]2)CC1` with Alpha-1A adrenergic receptor (Rattus norvegicus)?
Reply: 666
